Target: human FXR (NR1H4) (Homo sapiens (Human), UniProt Q96RI1)
Sequence (Q96RI1 whole entry, the tested form may be a part): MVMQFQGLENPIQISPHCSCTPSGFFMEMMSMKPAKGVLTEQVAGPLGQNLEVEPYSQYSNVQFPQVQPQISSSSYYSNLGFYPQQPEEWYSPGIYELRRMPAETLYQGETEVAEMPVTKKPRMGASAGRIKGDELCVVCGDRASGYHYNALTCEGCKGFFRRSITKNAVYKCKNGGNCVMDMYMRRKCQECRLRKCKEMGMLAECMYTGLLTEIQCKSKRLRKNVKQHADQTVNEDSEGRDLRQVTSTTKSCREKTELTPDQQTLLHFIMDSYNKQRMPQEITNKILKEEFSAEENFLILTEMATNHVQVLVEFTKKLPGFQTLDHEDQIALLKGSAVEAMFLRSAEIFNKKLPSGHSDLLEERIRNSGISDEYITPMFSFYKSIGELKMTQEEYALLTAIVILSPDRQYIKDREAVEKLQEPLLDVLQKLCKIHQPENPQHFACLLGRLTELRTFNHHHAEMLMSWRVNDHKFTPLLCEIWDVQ
Experiment: Human FXR (NR1H4) Assay (Gal4 promoter driven luciferase reporter, Indigo Bioscience kit IB00601)
Details: potency ranges
Protocol: Assays Human FXR (NR1H4) Assay Determination of a ligand mediated Gal4 promoter driven transactivation quantify ligand binding mediated activation of FXR. […] The principle application of this reporter assay system is to quantify functional activity of human FXR. […] Luminescence intensity of the reaction is quantified using a plate-reading luminometer, Envision. […] Cells were incubated for additional 22 hours before luciferase activities were measured. […] Read time may be 0.5 second (500 mSec) per well.
metric: EC50

>  <compound>
CC[C@H]1[C@@H](O)[C@@H]2[C@H](CC[C@]3(C)[C@@H]([C@H](C)CCNC(=O)NS(=O)(=O)N(C)C)CC[C@@H]23)[C@@]2(C)CC[C@@H](O)C[C@@H]12 [Example 91]

>  <EC50>
< 100 nM

$$$$

Reported EC50 for CC[C@H]1[C@@H](O)[C@@H]2[C@H](CC[C@]3(C)[C@@H]([C@H](C)CCNC(=O)NS(=O)(=O)C4CCC(C)(C)CC4)CC[C@@H]23)[C@@]2(C)CC[C@@H](O)C[C@@H]12 [Example 101] was < 100 nM

====

Here the recorded Efficacy (%) is given for each entry.
Biological target: human FXR (NR1H4) (Homo sapiens (Human), UniProt Q96RI1)
Experiment: Human FXR (NR1H4) Assay (Gal4 promoter driven luciferase reporter, Indigo Bioscience kit IB00601)
Type: cell-based
Conditions: efficacy normalized to CDCA set as 100%
Answer with the value and then the unit.

# annotated cases, reported Efficacy (%) shown
>  <compound>
CC[C@H]1[C@@H](O)[C@@H]2[C@H](CC[C@]3(C)[C@@H]([C@H](C)CCNC(=O)NS(=O)(=O)c4cnccn4)CC[C@@H]23)[C@@]2(C)CC[C@@H](O)C[C@@H]12 [Example 64]

>  <Efficacy (%)>
334%

$$$$
>  <compound>
CC[C@H]1[C@@H](O)[C@@H]2[C@H](CC[C@]3(C)[C@@H]([C@H](C)CCNS(=O)(=O)c4ccc(C(C)(C)C)s4)CC[C@@H]23)[C@@]2(C)CC[C@@H](O)C[C@@H]12 [Example 134]

>  <Efficacy (%)>
19%

$$$$
>  <compound>
CC[C@H]1[C@@H](O)[C@@H]2[C@H](CC[C@]3(C)[C@@H]([C@H](C)CCNC(=O)NS(=O)(=O)Cc4ccccc4)CC[C@@H]23)[C@@]2(C)CC[C@@H](O)C[C@@H]12 [Example 63]

>  <Efficacy (%)>
452%

$$$$

CC[C@H]1[C@@H](O)[C@@H]2[C@H](CC[C@]3(C)[C@@H]([C@H](C)CCNC(=O)NS(=O)(=O)C[C@]45CCC(CC4=O)C5(C)C)CC[C@@H]23)[C@@]2(C)CC[C@@H](O)C[C@@H]12 [Example 60] on human FXR (NR1H4) (Homo sapiens (Human), UniProt Q96RI1) gives Efficacy (%) = 346%

====

Target: human FXR (NR1H4) (Homo sapiens (Human))
Experiment: Human FXR (NR1H4) Assay (Gal4 promoter driven luciferase reporter, Indigo Bioscience kit IB00601)
Conditions: potency ranges
pEC50: −log10 of the molar value.
metric: pEC50

>  <compound_structure_string>
CC[C@H]1[C@@H](O)[C@@H]2[C@H](CC[C@]3(C)[C@@H]([C@H](C)CNC(=O)NS(=O)(=O)c4ccc5c(c4)OCO5)CC[C@@H]23)[C@@]2(C)CC[C@@H](O)C[C@@H]12

>  <target_or_test_system>
human FXR (NR1H4) (Homo sapiens (Human))

>  <metric>
pEC50

>  <readout_value>
> 7.00

$$$$
>  <compound_structure_string>
CC[C@H]1[C@@H](O)[C@@H]2[C@H](CC[C@]3(C)[C@@H]([C@H](C)CCNC(=O)NS(=O)(=O)N4CCOCC4)CC[C@@H]23)[C@@]2(C)CC[C@@H](O)C[C@@H]12

>  <target_or_test_system>
human FXR (NR1H4) (Homo sapiens (Human))

>  <metric>
pEC50

>  <readout_value>
> 7.00

$$$$
>  <compound_structure_string>
CC[C@H]1[C@@H](O)[C@@H]2[C@H](CC[C@]3(C)[C@@H]([C@H](C)CNC(=O)NS(=O)(=O)c4ccc(C5CCCCC5)cc4)CC[C@@H]23)[C@@]2(C)CC[C@@H](O)C[C@@H]12

>  <target_or_test_system>
human FXR (NR1H4) (Homo sapiens (Human))

>  <metric>
pEC50

>  <readout_value>
> 7.00

$$$$
>  <compound_structure_string>
CC[C@H]1[C@@H](O)[C@@H]2[C@H](CC[C@]3(C)[C@@H]([C@H](C)CCNC(=O)NS(=O)(=O)c4ccc5c(c4)CCC5)CC[C@@H]23)[C@@]2(C)CC[C@@H](O)C[C@@H]12

>  <target_or_test_system>
human FXR (NR1H4) (Homo sapiens (Human))

>  <metric>
pEC50

>  <readout_value>
> 7.00

$$$$
>  <compound_structure_string>
CC[C@H]1[C@@H](O)[C@@H]2[C@H](CC[C@]3(C)[C@@H]([C@H](C)CCNS(=O)(=O)c4cccc(N5CCCCC5)c4)CC[C@@H]23)[C@@]2(C)CC[C@@H](O)C[C@@H]12

>  <target_or_test_system>
human FXR (NR1H4) (Homo sapiens (Human))

>  <metric>
pEC50

>  <readout_value>
< 5.00

$$$$
>  <compound_structure_string>
CC[C@H]1[C@@H](O)[C@@H]2[C@H](CC[C@]3(C)[C@@H]([C@H](C)CCNC(=O)NS(=O)(=O)N4CC(F)(F)C(F)(F)C4)CC[C@@H]23)[C@@]2(C)CC[C@@H](O)C[C@@H]12

>  <target_or_test_system>
human FXR (NR1H4) (Homo sapiens (Human))

>  <metric>
pEC50

>  <readout_value>
> 7.00

$$$$
>  <compound_structure_string>
CC[C@H]1[C@@H](O)[C@@H]2[C@H](CC[C@]3(C)[C@@H]([C@H](C)CCNC(=O)NS(=O)(=O)c4cccs4)CC[C@@H]23)[C@@]2(C)CC[C@@H](O)C[C@@H]12

>  <target_or_test_system>
human FXR (NR1H4) (Homo sapiens (Human))

>  <metric>
pEC50

>  <readout_value>
6.00 to 7.00

$$$$
>  <compound_structure_string>
CC[C@H]1[C@@H](O)[C@@H]2[C@H](CC[C@]3(C)[C@@H]([C@H](C)CCNC(=O)NS(=O)(=O)c4cccc(OC(F)(F)F)c4)CC[C@@H]23)[C@@]2(C)CC[C@@H](O)C[C@@H]12

>  <target_or_test_system>
human FXR (NR1H4) (Homo sapiens (Human))

>  <metric>
pEC50

>  <readout_value>
> 7.00

$$$$

For the next question, use this compound.
Reported pEC50 for CC[C@H]1[C@@H](O)[C@@H]2[C@H](CC[C@]3(C)[C@@H]([C@H](C)CCNC(=O)NC(C)C)CC[C@@H]23)[C@@]2(C)CC[C@@H](O)C[C@@H]12 was 5.00 to 6.00

====

Biological target: human FXR (NR1H4) (Homo sapiens (Human), UniProt Q96RI1)
Test: Human FXR (NR1H4) Assay (Gal4 promoter driven luciferase reporter, Indigo Bioscience kit IB00601)
Settings: potency ranges
pEC50: −log10 of the molar value.
Here the recorded pEC50 is given for each entry.

# annotated cases, reported pEC50 shown
>  <compound_structure_string>
CC[C@H]1[C@@H](O)[C@@H]2[C@H](CC[C@]3(C)[C@@H]([C@H](C)CCNC(=O)NS(=O)(=O)c4ccc(C(C)(C)C)s4)CC[C@@H]23)[C@@]2(C)CC[C@@H](O)C[C@@H]12

>  <pEC50>
> 7.00

$$$$
>  <compound_structure_string>
CC[C@H]1[C@@H](O)[C@@H]2[C@H](CC[C@]3(C)[C@@H]([C@H](C)CCNC(=O)NS(=O)(=O)C[C@]45CCC(CC4=O)C5(C)C)CC[C@@H]23)[C@@]2(C)CC[C@@H](O)C[C@@H]12

>  <pEC50>
> 7.00

$$$$
>  <compound_structure_string>
CC[C@H]1[C@@H](O)[C@@H]2[C@H](CC[C@]3(C)[C@@H]([C@H](C)CCNC(=O)NS(=O)(=O)c4cccc5ncccc45)CC[C@@H]23)[C@@]2(C)CC[C@@H](O)C[C@@H]12

>  <pEC50>
6.00 to 7.00

$$$$

For the next question, use this molecule.
CC[C@H]1[C@@H](O)[C@@H]2[C@H](CC[C@]3(C)[C@@H]([C@H](C)CCNC(=O)NS(=O)(=O)c4ccc(C(=O)OC)cc4)CC[C@@H]23)[C@@]2(C)CC[C@@H](O)C[C@@H]12 on human FXR (NR1H4) (Homo sapiens (Human), UniProt Q96RI1) gives pEC50 = 6.00 to 7.00
